- testSystem: hTREX1 (Homo sapiens, UniProt Q9NSU2)
- Sequence (Q9NSU2 1-314): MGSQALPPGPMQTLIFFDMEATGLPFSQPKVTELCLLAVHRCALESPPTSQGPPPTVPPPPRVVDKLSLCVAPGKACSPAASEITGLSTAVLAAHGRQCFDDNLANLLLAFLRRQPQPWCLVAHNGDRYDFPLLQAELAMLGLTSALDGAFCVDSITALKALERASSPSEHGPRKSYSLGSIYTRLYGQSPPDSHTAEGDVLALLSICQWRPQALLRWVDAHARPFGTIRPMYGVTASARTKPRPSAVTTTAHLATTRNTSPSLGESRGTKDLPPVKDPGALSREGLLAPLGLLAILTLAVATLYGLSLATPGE
- test: hTREX1 HCT116 Cell Assay (HCT116 dual cells, Lucia luciferase reporter of Type I interferon induction)
- measurementConditions: TREX1i 4 h before pBR322/BstNI transfection, read after 48 h
readoutType: IC50

The following compounds have reported results that may help.
[
  {
    "compound": "Cc1cc(C)n(C(c2ccccc2C#N)C(C)c2nc(C(=O)Nc3cnoc3)c(O)c(=O)n2C)n1 (single isomer, unassigned) [Example 137 D1E1]",
    "IC50": "< 10 nM"
  },
  {
    "compound": "Cc1cnn(C(c2cc(F)ccc2Cl)C(C)c2nc(C(=O)Nc3cnoc3)c(O)c(=O)n2C)c1 (single isomer, unassigned) [Example 144 D1E2]",
    "IC50": "> 100 nM"
  },
  {
    "compound": "Cc1nn(C)cc1C(c1cc(F)ccc1C#N)C(C)c1nc(C(=O)Nc2cnoc2)c(O)c(=O)n1C (single isomer, unassigned) [Example 57 D1E1]",
    "IC50": "10 to 100 nM"
  },
  {
    "compound": "Cc1cc(C(c2cc(F)ccc2C#N)C(C)c2nc(C(=O)Nc3cnoc3)c(O)c(=O)n2C)n(C)n1 (single isomer, unassigned) [Example 111 D2E1]",
    "IC50": "> 100 nM"
  }
]

Moving on to the next compound.
Prompt: // returns reported IC50 for input CCc1cnn(C(c2ccccc2Cl)C(C)c2nc(C(=O)Nc3cnoc3)c(O)c(=O)n2C)c1 (single isomer, unassigned) [Example 134 D1E1]
Completion: > 100 nM

---

Measured IC50 of individual entries
- testSystem: full length mouse TREX1 (Mus musculus)
- Construct: N-terminally His-Tev tagged full length mouse TREX1; made in house; host or cells: E. coli
- Sequence (Q91XB0 whole entry): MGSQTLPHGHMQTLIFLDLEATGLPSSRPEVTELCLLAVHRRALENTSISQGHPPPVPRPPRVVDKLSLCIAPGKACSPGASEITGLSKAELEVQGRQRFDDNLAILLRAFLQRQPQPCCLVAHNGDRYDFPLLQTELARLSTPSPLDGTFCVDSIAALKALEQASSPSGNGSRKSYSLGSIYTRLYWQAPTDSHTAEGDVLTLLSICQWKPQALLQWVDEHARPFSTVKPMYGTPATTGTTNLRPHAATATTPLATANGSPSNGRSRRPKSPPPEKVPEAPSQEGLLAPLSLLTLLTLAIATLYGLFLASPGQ
- test: mTREX1 Biochemical Assay (fluorescence, dsDNA substrate degradation)
- measurementConditions: biochemical, read-out: mTREX1 IC50

The following compounds have reported results that may help.
[
  {
    "compound": "CC(c1nc(C(=O)Nc2cnoc2)c(O)c(=O)n1C)C(c1cnn(CCN2CCOCC2)c1)c1ccccc1C#N (single isomer, unassigned) [Example 20 D2E1]",
    "testSystem": "full length mouse TREX1 (Mus musculus)",
    "IC50": "> 10 nM"
  },
  {
    "compound": "CC(c1nc(C(=O)Nc2cnoc2)c(O)c(=O)n1C)C(c1cn[nH]c1)c1ccccc1C#N (single isomer, unassigned) [Example 12 D2E2]",
    "testSystem": "full length mouse TREX1 (Mus musculus)",
    "IC50": "> 10 nM"
  }
]

Moving on to the next compound.
Prompt: // returns reported IC50 for input CC(c1nc(C(=O)Nc2cnoc2)c(O)c(=O)n1C)C(c1cnccn1)c1ccccc1C#N (single isomer, unassigned) [Example 66 D1E2]
Completion: > 10 nM
